molecular target: CDK2/cyclin E (Homo sapiens); experiment: In vitro multi-kinase activity, IC50
recorded_endpoint: IC50
# answer = value followed by unit

Entry CN1CCN(c2ccc(Nc3ncc4cc(C#N)c(=O)n(C5CCCC5)c4n3)cc2)CC1 , IC50 reported as 69 nM

* * *

biological target: CDK4/cyclin D1 (Homo sapiens); assay: In vitro multi-kinase activity, IC50
Sequence (P11802 whole entry): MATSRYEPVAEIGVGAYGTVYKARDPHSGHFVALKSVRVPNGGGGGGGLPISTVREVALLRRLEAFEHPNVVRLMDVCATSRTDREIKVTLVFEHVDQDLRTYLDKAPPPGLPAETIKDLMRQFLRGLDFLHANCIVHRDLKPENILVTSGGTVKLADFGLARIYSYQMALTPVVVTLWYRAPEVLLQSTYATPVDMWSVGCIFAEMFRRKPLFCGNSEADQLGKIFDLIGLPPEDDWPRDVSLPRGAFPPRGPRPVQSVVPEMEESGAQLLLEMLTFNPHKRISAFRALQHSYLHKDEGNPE
Sequence (P24385 whole entry partner): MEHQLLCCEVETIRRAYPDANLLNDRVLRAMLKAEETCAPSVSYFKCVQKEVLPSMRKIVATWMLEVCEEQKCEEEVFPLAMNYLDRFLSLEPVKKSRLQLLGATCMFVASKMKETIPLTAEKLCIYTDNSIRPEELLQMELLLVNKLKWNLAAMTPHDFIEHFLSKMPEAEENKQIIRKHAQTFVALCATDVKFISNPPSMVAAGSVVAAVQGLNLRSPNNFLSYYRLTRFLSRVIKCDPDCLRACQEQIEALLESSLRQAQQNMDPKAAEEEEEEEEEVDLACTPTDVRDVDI
recorded_endpoint: pIC50
A value of pIC50 is the negative decimal logarithm of a concentration given in moles per litre.

The observed pIC50 for CN1CCN(c2ccc(Nc3ncc4cc(C#N)c(=O)n(C5CCCC5)c4n3)cc2)CC1 when tested with CDK4/cyclin D1 (Homo sapiens) stands at 8.70

* * *

molecular target: CDK9/cyclinT1 (Homo sapiens, UniProt P50750); assay: In vitro multi-kinase activity, IC50
Sequence (P50750 whole entry): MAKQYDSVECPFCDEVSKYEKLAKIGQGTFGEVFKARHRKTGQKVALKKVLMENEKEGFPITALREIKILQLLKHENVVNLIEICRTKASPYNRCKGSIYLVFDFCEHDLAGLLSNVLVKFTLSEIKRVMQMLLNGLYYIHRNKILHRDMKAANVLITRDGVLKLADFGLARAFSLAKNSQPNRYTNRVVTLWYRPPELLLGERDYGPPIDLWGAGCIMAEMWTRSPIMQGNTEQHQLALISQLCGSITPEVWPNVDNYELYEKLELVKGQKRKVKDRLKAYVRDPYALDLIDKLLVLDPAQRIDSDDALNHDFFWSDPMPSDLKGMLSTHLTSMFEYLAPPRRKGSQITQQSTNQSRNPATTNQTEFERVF
Sequence (O60563 whole entry partner): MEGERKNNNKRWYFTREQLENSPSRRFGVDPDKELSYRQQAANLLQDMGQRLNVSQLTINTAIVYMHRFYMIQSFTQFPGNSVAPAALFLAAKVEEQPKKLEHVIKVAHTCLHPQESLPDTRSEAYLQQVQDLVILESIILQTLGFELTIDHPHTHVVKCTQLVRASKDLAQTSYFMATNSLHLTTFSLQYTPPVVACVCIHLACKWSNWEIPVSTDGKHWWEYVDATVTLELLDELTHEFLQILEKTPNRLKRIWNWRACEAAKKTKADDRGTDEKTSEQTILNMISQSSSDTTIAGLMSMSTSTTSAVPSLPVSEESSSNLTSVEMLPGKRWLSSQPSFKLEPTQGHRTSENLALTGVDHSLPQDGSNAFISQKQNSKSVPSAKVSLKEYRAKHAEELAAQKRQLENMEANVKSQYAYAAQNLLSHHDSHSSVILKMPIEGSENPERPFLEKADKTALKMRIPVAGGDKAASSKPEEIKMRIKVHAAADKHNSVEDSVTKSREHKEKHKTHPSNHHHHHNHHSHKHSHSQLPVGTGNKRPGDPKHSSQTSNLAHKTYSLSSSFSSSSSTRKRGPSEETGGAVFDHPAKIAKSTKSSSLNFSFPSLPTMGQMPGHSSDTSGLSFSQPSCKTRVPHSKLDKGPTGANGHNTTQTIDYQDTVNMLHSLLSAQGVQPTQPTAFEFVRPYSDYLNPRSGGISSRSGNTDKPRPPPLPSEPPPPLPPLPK
recorded_endpoint: IC50 (µM)
Return type: number; implicit unit µM.

Entry CN1CCN(c2ccc(Nc3ncc4cc(C#N)c(=O)n(C5CCCC5)c4n3)cc2)CC1 , IC50 reported as 0.048

* * *

target: CSF1R (Homo sapiens)
Sequence (P07333 20-972): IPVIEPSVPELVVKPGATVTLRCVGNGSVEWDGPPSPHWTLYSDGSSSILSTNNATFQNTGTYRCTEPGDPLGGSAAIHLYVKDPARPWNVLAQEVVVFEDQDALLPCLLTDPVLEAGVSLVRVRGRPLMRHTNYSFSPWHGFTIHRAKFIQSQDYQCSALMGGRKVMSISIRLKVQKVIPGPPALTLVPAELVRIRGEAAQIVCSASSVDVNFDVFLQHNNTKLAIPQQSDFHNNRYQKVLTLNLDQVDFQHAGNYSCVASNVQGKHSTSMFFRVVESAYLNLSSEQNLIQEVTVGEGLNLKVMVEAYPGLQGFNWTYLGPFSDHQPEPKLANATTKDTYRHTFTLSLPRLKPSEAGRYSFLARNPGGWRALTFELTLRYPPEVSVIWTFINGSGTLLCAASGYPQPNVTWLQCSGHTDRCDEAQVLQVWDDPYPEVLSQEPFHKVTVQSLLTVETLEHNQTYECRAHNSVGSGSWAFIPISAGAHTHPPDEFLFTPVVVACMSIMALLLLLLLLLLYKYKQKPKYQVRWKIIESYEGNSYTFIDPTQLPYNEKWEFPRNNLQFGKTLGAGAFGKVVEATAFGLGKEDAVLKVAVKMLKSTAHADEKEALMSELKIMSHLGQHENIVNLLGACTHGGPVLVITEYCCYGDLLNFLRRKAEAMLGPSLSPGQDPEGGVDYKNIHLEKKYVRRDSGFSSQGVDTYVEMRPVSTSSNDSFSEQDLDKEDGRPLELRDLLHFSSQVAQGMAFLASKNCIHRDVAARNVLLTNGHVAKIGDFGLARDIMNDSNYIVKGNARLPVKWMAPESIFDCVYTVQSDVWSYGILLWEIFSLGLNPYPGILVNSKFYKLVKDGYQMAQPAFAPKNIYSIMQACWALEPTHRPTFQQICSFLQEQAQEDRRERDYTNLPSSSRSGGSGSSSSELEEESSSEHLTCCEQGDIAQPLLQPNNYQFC
recorded_endpoint: pIC50
A value of pIC50 is the negative decimal logarithm of a concentration given in moles per litre.

Entry CN1CCN(c2ccc(Nc3ncc4cc(C#N)c(=O)n(C5CCCC5)c4n3)cc2)CC1 , pIC50 reported as 9.15

* * *

Target: ARK 5/NUAK 1 (Homo sapiens)
Sequence (O60285 whole entry): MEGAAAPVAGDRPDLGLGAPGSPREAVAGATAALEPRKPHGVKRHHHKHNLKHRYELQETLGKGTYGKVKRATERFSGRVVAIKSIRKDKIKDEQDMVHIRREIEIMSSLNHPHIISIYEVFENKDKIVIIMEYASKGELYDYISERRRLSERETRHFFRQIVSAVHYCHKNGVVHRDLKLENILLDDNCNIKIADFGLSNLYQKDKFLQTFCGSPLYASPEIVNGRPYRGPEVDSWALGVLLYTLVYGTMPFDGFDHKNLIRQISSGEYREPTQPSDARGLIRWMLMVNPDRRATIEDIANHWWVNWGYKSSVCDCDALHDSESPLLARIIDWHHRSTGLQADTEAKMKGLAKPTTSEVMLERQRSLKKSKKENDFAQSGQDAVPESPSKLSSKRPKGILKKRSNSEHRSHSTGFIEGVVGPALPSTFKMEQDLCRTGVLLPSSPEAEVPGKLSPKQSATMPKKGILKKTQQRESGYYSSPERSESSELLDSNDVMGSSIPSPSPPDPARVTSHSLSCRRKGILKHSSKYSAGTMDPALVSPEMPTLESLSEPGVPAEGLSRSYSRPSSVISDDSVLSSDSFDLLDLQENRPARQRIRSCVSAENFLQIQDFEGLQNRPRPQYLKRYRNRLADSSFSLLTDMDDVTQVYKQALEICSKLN
Assay: In vitro multi-kinase activity, IC50
Source text: The study evaluates the IC50 values (in nM) of Compound 1 in comparison to FDA approved CDK 4/6 inhibitors Comparator 1, Comparator 2 and Comparator 3, which represent treatment advances for HR+ HER^2-metastatic breast cancer. IC50 value is a quantitative measure indicating the concentration needed to inhibit the listed kinase by 50%.
recorded_endpoint: IC50 (nM)
Return type: number; implicit unit nM.

The observed IC50 for CN1CCN(c2ccc(Nc3ncc4cc(C#N)c(=O)n(C5CCCC5)c4n3)cc2)CC1 [Compound 1] when tested with ARK 5/NUAK 1 (Homo sapiens) stands at 5

* * *

biological target: CDK7/cyclin H (Homo sapiens); assay: In vitro multi-kinase activity, IC50
Sequence (P50613 whole entry): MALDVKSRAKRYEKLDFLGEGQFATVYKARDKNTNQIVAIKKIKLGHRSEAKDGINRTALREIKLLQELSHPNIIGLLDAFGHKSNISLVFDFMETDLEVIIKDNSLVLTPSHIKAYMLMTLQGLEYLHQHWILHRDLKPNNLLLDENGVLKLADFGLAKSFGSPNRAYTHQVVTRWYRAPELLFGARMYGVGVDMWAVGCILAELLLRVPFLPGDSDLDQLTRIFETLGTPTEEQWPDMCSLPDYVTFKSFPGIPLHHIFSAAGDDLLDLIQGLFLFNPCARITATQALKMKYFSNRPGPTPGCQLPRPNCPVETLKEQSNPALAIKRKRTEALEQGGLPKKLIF
Sequence (P51946 whole entry partner): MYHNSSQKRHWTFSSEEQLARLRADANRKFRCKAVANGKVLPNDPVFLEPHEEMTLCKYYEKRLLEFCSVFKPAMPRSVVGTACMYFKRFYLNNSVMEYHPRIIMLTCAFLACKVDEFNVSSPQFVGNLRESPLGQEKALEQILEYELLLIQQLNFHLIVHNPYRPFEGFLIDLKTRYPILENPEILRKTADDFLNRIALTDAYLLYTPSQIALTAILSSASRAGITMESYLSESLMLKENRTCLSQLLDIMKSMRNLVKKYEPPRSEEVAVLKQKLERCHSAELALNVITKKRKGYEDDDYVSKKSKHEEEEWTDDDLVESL
recorded_endpoint: IC50 (µM)
Return type: number; implicit unit µM.

Entry CN1CCN(c2ccc(Nc3ncc4cc(C#N)c(=O)n(C5CCCC5)c4n3)cc2)CC1 [Compound 1] , IC50 reported as 3.77

* * *

molecular target: CDK6/cyclin D1 (Homo sapiens, UniProt Q00534); experiment: In vitro multi-kinase activity, IC50
Sequence (Q00534 whole entry): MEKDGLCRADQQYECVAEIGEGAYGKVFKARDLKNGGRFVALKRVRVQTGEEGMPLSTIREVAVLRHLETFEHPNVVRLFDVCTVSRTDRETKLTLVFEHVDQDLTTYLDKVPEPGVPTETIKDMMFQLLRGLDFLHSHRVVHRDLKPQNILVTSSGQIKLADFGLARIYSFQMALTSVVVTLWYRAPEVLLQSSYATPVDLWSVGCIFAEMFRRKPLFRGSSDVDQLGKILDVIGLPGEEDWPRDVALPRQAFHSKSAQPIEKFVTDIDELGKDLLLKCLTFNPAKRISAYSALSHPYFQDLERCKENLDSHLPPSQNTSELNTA
Sequence (P24385 whole entry partner): as the sequence (P24385 whole entry partner) above
recorded_endpoint: IC50

Entry CN1CCN(c2ccc(Nc3ncc4cc(C#N)c(=O)n(C5CCCC5)c4n3)cc2)CC1 [Compound 1] , IC50 reported as 0.6 nM
